methodSummary: Maximum endothermic temperature of amine compound (DSC)
Format: physicochemical
runConditions: DSC 23 to 350° C., 10° C./min, nitrogen atmosphere; volatilization of amine compound
Procedure: Heating the amine compound (A) from 23° C. to 350° C. at 10° C./minute of the heating rate, measuring a temperature at which an endothermic amount associated with the volatilization of the amine compound (A) reaches a maximum, and letting this temperature be the maximum endothermic temperature of the amine compound (A). (Maximum Endothermic Temperature of Amine Compound) […]
outcomeMeasure: Maximum Endothermic Temperature (°C)
One number for each entry, in °C.

Solved entries:
>>> endpointresult("Cc1ccc(CN)o1")
115.3
>>> endpointresult("NCc1cccc(CN)c1 [Comparative Example 1, Meta-xylylenediamine, reference compound]")
183.5
>>> endpointresult("NCCNCCN [Comparative Example 2, Diethylenetriamine, reference compound]")
127.8

Hey, can you go through the list below and give me Maximum Endothermic Temperature for every item?
1. NCC1CCC(CN)O1 (stereo not drawn) [Example 1, 2,5-bis(aminomethyl)tetrahydrofuran]
2. NCC1CCOCC1 [Example 3, 4-aminomethyltetrahydropyran]
3. NCc1ccc(CN)o1
4. NCc1ccco1
5. NCCN1CCOCC1
6. NCc1cccs1

Ans:
[155.9, 127.4, 154.2, 92.4, 145.0, 140.1]

====

methodSummary: Maximum carbon dioxide release temperature of amine compound (DSC)
Assay type: physicochemical
runConditions: amine compound with CO2 absorbed from air for 24 h; DSC 23 to 250° C., 10° C./min, nitrogen atmosphere
Label Yes when Maximum CO2 Release Temperature is strictly below 80 °C; at or above that, label No.

Take a look at these entries with their results.
>>> labelclass("NCc1cccs1")
"No"
>>> labelclass("NCc1ccco1")
"Yes"
>>> labelclass("NCCNCCN [Comparative Example 2, Diethylenetriamine, reference compound]")
"No"

Lab note: next molecule to report on.
Q: Is Maximum CO2 Release Temperature of NCc1ccc(CN)o1 strictly below 80 °C?
Ans: No

====

methodSummary: Maximum carbon dioxide release temperature of amine compound (DSC)
Type: physicochemical
runConditions: amine compound with CO2 absorbed from air for 24 h; DSC 23 to 250° C., 10° C./min, nitrogen atmosphere
outcomeMeasure: Maximum CO2 Release Temperature (°C)
Numbers only, in °C.

Solved entries:
>>> endpointresult("Cc1ccc(CN)o1 [Example 7, 5-methylfurfurylamine]")
80.7
>>> endpointresult("NCC1CCOCC1 [Example 3, 4-aminomethyltetrahydropyran]")
111.0
>>> endpointresult("NCc1cccc(CN)c1 [Comparative Example 1, Meta-xylylenediamine, reference compound]")
135.5

Q: Which value of Maximum CO2 Release Temperature has been reported for NCC1CCC(CN)O1 (stereo not shown) [Example 1, 2,5-bis(aminomethyl)tetrahydrofuran] in the records?
Ans: 80.3

====

Provide the recorded pKa for the entries that follow.
methodSummary: Acid dissociation constant (pKa) by acid-base titration
Type: physicochemical
runConditions: 0.2 g in 30 mL purified water, 25±2° C.
Give bare numbers.

>>> endpointresult("NCCNCCN [Comparative Example 2, Diethylenetriamine, reference compound]")
9.7
>>> endpointresult("NCC1CCOCC1 [Example 3, 4-aminomethyltetrahydropyran]")
10

Hey, can you go through the list below and give me pKa for every item?
1. Cc1ccc(CN)o1
2. NCC1CCC(CN)O1 (stereo not drawn) [Example 1, 2,5-bis(aminomethyl)tetrahydrofuran]
3. NCCN1CCOCC1
4. NCc1cccc(CN)c1 [Comparative Example 1, Meta-xylylenediamine, reference compound]
5. NCc1ccco1
6. NCc1cccs1
7. NCc1ccc(CN)o1

Ans:
9.2
9.4
10.1
9.5
9.2
9.5
9

====

methodSummary: Evaluation of absorbed amount of carbon dioxide from air (desiccator)
runConditions: 5 mmol amine compound in desiccator, air 23° C. and 50% RH, initial CO2 about 400 ppm, after 24 hours
Rule: Evaluation of CO2 Absorbed Amount: Changes of CO2 Concentration, 24h under 300 ppm gives 0, otherwise 1.

Take a look at these entries with their results.
>>> labelclass("NCCN1CCOCC1")
1
>>> labelclass("NCc1ccco1")
0
>>> labelclass("Cc1ccc(CN)o1")
0
>>> labelclass("NCc1cccc(CN)c1 [Comparative Example 1, Meta-xylylenediamine, reference compound]")
1
>>> labelclass("NCC1CCOCC1 [Example 3, 4-aminomethyltetrahydropyran]")
1

Q: Evaluation of CO2 Absorbed Amount: Changes of CO2 Concentration, 24h >= 300 ppm for NCc1cccs1 ?
Ans: 0

====

methodSummary: Amine value of amine compound (JIS K7237-1995 titration)
Assay type: physicochemical
runConditions: 0.1 g in 20 mL acetic acid, titrated with 0.1 N perchloric acid-acetic acid
outcomeMeasure: Amine Value (mgKOH/g)
Give bare numbers, in mgKOH/g.

>>> endpointresult("NCC1CCOCC1 [Example 3, 4-aminomethyltetrahydropyran]")
487
>>> endpointresult("NCc1cccc(CN)c1 [Comparative Example 1, Meta-xylylenediamine, reference compound]")
824
>>> endpointresult("NCC1CCC(CN)O1 (stereo not drawn) [Example 1, 2,5-bis(aminomethyl)tetrahydrofuran]")
862

Hey, can you go through the list below and give me Amine Value for every item?
1. NCc1ccc(CN)o1
2. NCCN1CCOCC1
3. NCCNCCN [Comparative Example 2, Diethylenetriamine, reference compound]
4. Cc1ccc(CN)o1

Ans:
1: 890; 2: 862; 3: 1632; 4: 505

Hey, can you go through the list below and give me Amine Value for every item?
1. NCc1ccco1
2. NCc1cccs1

Ans:
[578, 496]

====

methodSummary: Evaluation of absorbed amount of carbon dioxide from air (desiccator)
runConditions: 5 mmol amine compound in desiccator, air 23° C. and 50% RH, initial CO2 about 400 ppm, after 24 hours
Provide the recorded Evaluation of CO2 Absorbed Amount: Changes of CO2 Concentration, 24h for the entries that follow.
One number for each entry, in ppm.

>>> endpointresult("NCC1CCC(CN)O1 (stereo not drawn) [Example 1, 2,5-bis(aminomethyl)tetrahydrofuran]")
300

Hey, can you go through the list below and give me Evaluation of CO2 Absorbed Amount: Changes of CO2 Concentration, 24h for every item?
1. NCc1ccc(CN)o1
2. NCCNCCN [Comparative Example 2, Diethylenetriamine, reference compound]

Ans:
1. 306
2. 300

Every entry's value here was drawn from patent US20240100473A1.
